experiment: The drug is tested on WLS-350 corresponding to human gut metagenome with ENA study accession number: PRJEB37062 and ENA sample accession number: ERS12561789 for biotransformation under anaerobic condition. The drug concentrations were measured over 9 timepoints collected between 0 and 24 hours of incubation by liquid-chromatography-coupled mass spectrometry (LC–MS); further: call rule not given here
condition summary: 2 µM
measured endpoint: Bacterial Biotransformation

compound: Cc1ccc(/C(=C\CN2CCCC2)c2ccccn2)cc1
measured endpoint: Bacterial Biotransformation
assay value: Compound NOT metabolized
//
compound: CCOC(=O)[C@H](CCc1ccccc1)N[C@@H](C)C(=O)N1[C@H](C(=O)O)C[C@H]2CCCC[C@@H]21
measured endpoint: Bacterial Biotransformation
assay value: Compound NOT metabolized
//
compound: OCCN1CCN(CCCN2c3ccccc3Sc3ccc(C(F)(F)F)cc32)CC1
measured endpoint: Bacterial Biotransformation
assay value: Compound metabolized
//
compound: OC(CCN1CCCCC1)(c1ccccc1)C1CC2C=CC1C2 (stereo unspecified)
measured endpoint: Bacterial Biotransformation
assay value: Compound NOT metabolized
//
compound: CC(C)NCC(O)COc1ccc(COCCOC(C)C)cc1.CC(C)NCC(O)COc1ccc(COCCOC(C)C)cc1.O=C(O)/C=C/C(=O)O (stereo unspecified) [BISOPROLOL FUMARATE]
measured endpoint: Bacterial Biotransformation
assay value: Compound NOT metabolized
//
compound: CCCC(=O)Nc1ccc(OCC(O)CNC(C)C)c(C(C)=O)c1 (stereo unspecified)
measured endpoint: Bacterial Biotransformation
assay value: Compound metabolized
//
compound: Cc1ccc(S(=O)(=O)NC(=O)NN2CC3CCCC3C2)cc1 (stereo unspecified) [GLICLAZIDE]
measured endpoint: Bacterial Biotransformation
assay value: Compound metabolized
//
compound: CCc1nn(CCCN2CCN(c3cccc(Cl)c3)CC2)c(=O)n1CCOc1ccccc1
measured endpoint: Bacterial Biotransformation
assay value: Compound NOT metabolized
//
compound: CN1CCC(=C2c3ccccc3CCc3cccnc32)CC1.O=C(O)/C=C\C(=O)O.O=C(O)/C=C\C(=O)O [AZATADINE MALEATE]
measured endpoint: Bacterial Biotransformation
assay value: Compound NOT metabolized
//
compound: C[C@@H]1C[C@H]2[C@@H]3CCC4=CC(=O)C=C[C@]4(C)[C@@]3(F)[C@@H](O)C[C@]2(C)[C@@]1(O)C(=O)CO
measured endpoint: Bacterial Biotransformation
assay value: Compound NOT metabolized
//
compound: CC(CN1c2ccccc2Sc2ccccc21)N(C)C (stereo unspecified)
measured endpoint: Bacterial Biotransformation
assay value: Compound metabolized
//
compound: CN(C)CCc1c[nH]c2ccc(Cn3cncn3)cc12.O=C(O)c1ccccc1 [RIZATRIPTAN BENZOATE]
measured endpoint: Bacterial Biotransformation
assay value: Compound NOT metabolized
//
compound: COCCc1ccc(OCC(O)CNC(C)C)cc1.COCCc1ccc(OCC(O)CNC(C)C)cc1.O=C(O)C(O)C(O)C(=O)O (stereo unspecified) [METOPROLOL TARTRATE]
measured endpoint: Bacterial Biotransformation
assay value: Compound metabolized
//
compound: NC(=O)N1c2ccccc2CC(=O)c2ccccc21 [OXCARBAZEPINE]
measured endpoint: Bacterial Biotransformation
assay value: Compound metabolized
//
compound: CCN(CC)CCOC(=O)C(Cc1cccc2ccccc12)CC1CCCO1.O=C(O)C(=O)O (stereo unspecified) [NAFRONYL OXALATE]
measured endpoint: Bacterial Biotransformation
assay value: Compound metabolized
//
compound: CC(C)c1c(C(=O)Nc2ccccc2)c(-c2ccccc2)c(-c2ccc(F)cc2)n1CC[C@@H](O)C[C@@H](O)CC(=O)O
measured endpoint: Bacterial Biotransformation
assay value: Compound metabolized

* * *

condition summary: human gut metagenome, 24 h, 2 µM
Where a SMILES comes first, the peptide text is derived from it. [ ]: non-standard residue; d: D form. pGlu = O=C1CC[C@@H](C(=O)O)N1; Thz = O=C(O)[C@@H]1CSCN1

compound: COc1ccc(CCN(C)CCCC(C#N)(c2ccc(OC)c(OC)c2)C(C)C)cc1OC (stereo not drawn)
Bacterial Biotransformation: Compound metabolized
//
compound: CC(C)c1nc(CN(C)C(=O)N[C@H](C(=O)N[C@@H](Cc2ccccc2)C[C@H](O)[C@H](Cc2ccccc2)NC(=O)OCc2cncs2)C(C)C)cs1 [RITONAVIR]
Bacterial Biotransformation: Compound NOT metabolized
//
compound: CCOC(=O)[C@H](CCc1ccccc1)N[C@@H](C)C(=O)N1[C@H](C(=O)O)C[C@@H]2CCC[C@@H]21
Bacterial Biotransformation: Compound metabolized
//
compound: CCC1(c2ccc(N)cc2)CCC(=O)NC1=O (stereo not drawn) [AMINOGLUTETHIMIDE]
Bacterial Biotransformation: Compound NOT metabolized
//
compound: CCC(=O)NCC[C@@H]1CCc2ccc3c(c21)CCO3 [RAMELTEON]
Bacterial Biotransformation: Compound metabolized
//
compound: Cc1ccc(S(=O)(=O)NC(=O)NN2CC3CCCC3C2)cc1 (stereo not drawn) [GLICLAZIDE]
Bacterial Biotransformation: Compound metabolized
//
compound: O=c1[nH]c2ccccc2n1CCCN1CCC(n2c(=O)[nH]c3cc(Cl)ccc32)CC1 [DOMPERIDONE]
Bacterial Biotransformation: Compound NOT metabolized
//
compound: CN1CCOC(c2ccccc2)c2ccccc2C1 (stereo not drawn) [NEFOPAM]
Bacterial Biotransformation: Compound NOT metabolized
//
compound: O=C1CC[C@@H](C(=O)N2CSC[C@H]2C(=O)O)N1 [PIDOTIMOD] ([pGlu]-[Thz]-OH)
Bacterial Biotransformation: Compound NOT metabolized
//
compound: CCCCC(=O)N(Cc1ccc(-c2ccccc2-c2nnn[nH]2)cc1)[C@H](C(=O)O)C(C)C
Bacterial Biotransformation: Compound metabolized
//
compound: COc1ccc2[nH]c([S+]([O-])Cc3ncc(C)c(OC)c3C)nc2n1 (stereo not drawn) [TENATOPRAZOLE]
Bacterial Biotransformation: Compound metabolized
//
compound: OC(Cn1cncn1)(Cn1cncn1)c1ccc(F)cc1F [FLUCONAZOLE]
Bacterial Biotransformation: Compound NOT metabolized
//
compound: N#Cc1ccc(C(c2ccc(C#N)cc2)n2cncn2)cc1 [LETROZOLE]
Bacterial Biotransformation: Compound NOT metabolized
//
compound: Fc1ccc([C@@H]2CCNC[C@H]2COc2ccc3c(c2)OCO3)cc1 [PAROXETINE]
Bacterial Biotransformation: Compound metabolized
//
compound: CN1CCc2c(c3ccccc3n2Cc2ccccc2)C1.CN1CCc2c(c3ccccc3n2Cc2ccccc2)C1.O=S(=O)(O)c1cccc2c(S(=O)(=O)O)cccc12
Bacterial Biotransformation: Compound metabolized
//
compound: COC(=O)[C@H]1[C@H]2C[C@@H]3c4[nH]c5cc(OC)ccc5c4CCN3C[C@H]2C[C@@H](OC(=O)c2cc(OC)c(OC)c(OC)c2)[C@@H]1OC [RESERPINE]
Bacterial Biotransformation: Compound NOT metabolized
//
compound: COc1ccccc1OCC(O)COC(N)=O (stereo not drawn) [METHOCARBAMOL]
Bacterial Biotransformation: Compound NOT metabolized
//
compound: CC(C)(Oc1ccc(CCNC(=O)c2ccc(Cl)cc2)cc1)C(=O)O [BEZAFIBRATE]
Bacterial Biotransformation: Compound metabolized

* * *

condition summary: human gut metagenome, 24 h, 2 µM

compound: CCC(=O)NCC[C@@H]1CCc2ccc3c(c21)CCO3
Bacterial Biotransformation: Compound NOT metabolized
//
compound: CN(C(=O)CN(CCO)CC(=O)N(C)C(C)(C)Cc1ccccc1)C(C)(C)Cc1ccccc1
Bacterial Biotransformation: Compound metabolized
//
compound: CCOC(=O)[C@H](CCc1ccccc1)N[C@@H](C)C(=O)N1[C@H](C(=O)O)C[C@@H]2CCC[C@@H]21
Bacterial Biotransformation: Compound metabolized
//
compound: C#C[C@]1(O)CC[C@H]2[C@@H]3CCC4=CC(=O)CC[C@@H]4[C@H]3CC[C@@]21CC
Bacterial Biotransformation: Compound metabolized
//
compound: CCCCCOC(=O)Nc1nc(=O)n([C@@H]2O[C@H](C)[C@@H](O)[C@H]2O)cc1F
Bacterial Biotransformation: Compound metabolized
//
compound: CC(O)(CS(=O)(=O)c1ccc(F)cc1)C(=O)Nc1ccc(C#N)c(C(F)(F)F)c1 (stereo unspecified) [BICALUTAMIDE]
Bacterial Biotransformation: Compound NOT metabolized
//
compound: CCCc1nc2c(C)cc(-c3nc4ccccc4n3C)cc2n1Cc1ccc(-c2ccccc2C(=O)O)cc1
Bacterial Biotransformation: Compound metabolized
//
compound: Cc1ccc(-c2nc3ccc(C)cn3c2CC(=O)N(C)C)cc1
Bacterial Biotransformation: Compound NOT metabolized
//
compound: COCCc1ccc(OCC(O)CNC(C)C)cc1.COCCc1ccc(OCC(O)CNC(C)C)cc1.O=C(O)C(O)C(O)C(=O)O (stereo unspecified) [METOPROLOL TARTRATE]
Bacterial Biotransformation: Compound NOT metabolized
//
compound: COC(=O)[C@H]1[C@H]2C[C@@H]3c4[nH]c5cc(OC)ccc5c4CCN3C[C@H]2C[C@@H](OC(=O)c2cc(OC)c(OC)c(OC)c2)[C@@H]1OC
Bacterial Biotransformation: Compound NOT metabolized
//
compound: CC(C)(C)NC[C@H](O)COc1ccccc1C1CCCC1.CC(C)(C)NC[C@H](O)COc1ccccc1C1CCCC1.O=S(=O)(O)O [PENBUTOLOL SULFATE]
Bacterial Biotransformation: Compound metabolized
//
compound: CNCCC(Oc1ccc(C(F)(F)F)cc1)c1ccccc1 (stereo unspecified)
Bacterial Biotransformation: Compound NOT metabolized
//
compound: NC12CC3CC(CC(C3)C1)C2
Bacterial Biotransformation: Compound NOT metabolized
//
compound: NS(=O)(=O)c1cc2c(cc1Cl)N=C(CSCc1ccccc1)NS2(=O)=O [BENZTHIAZIDE]
Bacterial Biotransformation: Compound NOT metabolized
//
compound: COc1ccc2[nH]c([S+]([O-])Cc3ncc(C)c(OC)c3C)nc2c1 (stereo unspecified)
Bacterial Biotransformation: Compound metabolized
//
compound: COc1ccc2[nH]c([S+]([O-])Cc3ncc(C)c(OC)c3C)nc2n1 (stereo unspecified)
Bacterial Biotransformation: Compound metabolized
